assay: Lipophilicity, logP of compound; type: physicochemical; conditions: octanol/water
quantity: logP
Number only, please.

query: Please give the measured logP for this compound: `CC(=O)N1CCN(CCOCc2ccn(-c3ccc(F)c(F)c3)n2)CC1.Cl`
result: 1.7

###

target: Sigma non-opioid intracellular receptor 1 (Homo sapiens, UniProt Q99720); experiment: Displacement of [3H]-(+)-pentazocine from human sigma1 receptor expressed in HEK293 cell membranes incubated for 120 mins by liquid scintillation counting method
Sequence (Q99720 whole entry): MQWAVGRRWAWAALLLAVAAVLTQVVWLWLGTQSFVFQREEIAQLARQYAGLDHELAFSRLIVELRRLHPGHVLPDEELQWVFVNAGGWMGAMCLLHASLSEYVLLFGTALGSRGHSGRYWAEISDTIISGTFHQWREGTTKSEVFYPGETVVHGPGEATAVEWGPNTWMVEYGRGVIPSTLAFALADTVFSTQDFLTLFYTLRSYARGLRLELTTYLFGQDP
quantity: pKi
Units for pKi: none; it is -log10 of a concentration expressed in mol/L.

These recorded examples may help you get a feel for the data.
Cc1cc(COCCN2CCOCC2)nn1C1CCCC1 :: 6.62
CC(=O)N1CCN(CCCOCc2cc(C)n(-c3ccc(Cl)c(Cl)c3)n2)CC1 :: 8.05
Cc1cc(CCCN2CCOCC2)nn1-c1ccc(Cl)c(Cl)c1 :: 8.30

query: Please give the measured pKi for this molecule: `CC(=O)N1CCN(CCOCc2cc(C)n(-c3ccc(Cl)c(Cl)c3)n2)CC1`
result: 7.82

query: Please give the measured pKi for this molecule: `Cc1cc(COCCN2CCCCC2)nn1-c1ccc(Cl)c(Cl)c1`
result: 8.70

query: Please give the measured pKi for this molecule: `Cc1cc(COCCN2C[C@@H](C)O[C@@H](C)C2)nn1-c1ccc(Cl)c(Cl)c1`
result: 8.52

query: Please give the measured pKi for this molecule: `CC(=O)N1CCN(CCOCc2ccn(-c3ccc(F)c(F)c3)n2)CC1.Cl`
result: 7.66

query: Please give the measured pKi for this molecule: `Clc1ccc(-n2ccc(COCCN3CCOCC3)n2)cc1Cl`
result: 8.70

query: Please give the measured pKi for this molecule: `CC(=O)N1CCN(CCOCc2cc(C)n(-c3ccc(F)c(F)c3)n2)CC1`
result: 7.24

query: Please give the measured pKi for this molecule: `Cc1cc(COCCN2CCOCC2)nn1-c1ccc2ccccc2c1`
result: 6.68

query: Please give the measured pKi for this molecule: `Cc1cc(COCCN2CCCC2)nn1-c1ccc(Cl)c(Cl)c1`
result: 8.22

###

test: Displacement of [3H]-DTG from sigma2 receptor in guinea pig brain membranes incubated for 120 mins by liquid scintillation counting method; format: cell membranes, Cavia porcellus, Cell membrane
Rule for this label: 1 means Ki is less than 200 nM; 0 means Ki is at least 200 nM.

query: Lab note: Ki threshold 200 nM. Does this compound come in strictly under it? `Cc1cc(CCCCN2CCOCC2)nn1-c1ccc(Cl)c(Cl)c1`
result: 1

query: Lab note: Ki threshold 200 nM. Does this compound come in strictly under it? `CC(=O)N1CCN(CCCOCc2cc(C)n(-c3ccc(Cl)c(Cl)c3)n2)CC1`
result: 0

query: Lab note: Ki threshold 200 nM. Does this compound come in strictly under it? `Cc1cc(COCCN2C[C@@H](C)O[C@@H](C)C2)nn1-c1ccc(Cl)c(Cl)c1`
result: 1

query: Lab note: Ki threshold 200 nM. Does this compound come in strictly under it? `Cc1cc(COCCN2CCCCC2)nn1-c1ccc(Cl)c(Cl)c1`
result: 1

query: Lab note: Ki threshold 200 nM. Does this compound come in strictly under it? `CC(=O)N1CCN(CCOCc2ccn(-c3ccc(F)c(F)c3)n2)CC1.Cl`
result: 0

query: Lab note: Ki threshold 200 nM. Does this compound come in strictly under it? `CC(=O)N1CCN(CCOCc2cc(C)n(-c3ccc(F)c(F)c3)n2)CC1`
result: 0

query: Lab note: Ki threshold 200 nM. Does this compound come in strictly under it? `CC(=O)N1CCN(CCOCc2cc(C)n(-c3ccc(Cl)c(Cl)c3)n2)CC1`
result: 0

query: Lab note: Ki threshold 200 nM. Does this compound come in strictly under it? `Cc1cc(CCCN2CCOCC2)nn1-c1ccc(Cl)c(Cl)c1`
result: 0

query: Lab note: Ki threshold 200 nM. Does this compound come in strictly under it? `Cc1cc(COCCN2CCCC2)nn1-c1ccc(Cl)c(Cl)c1`
result: 1

query: Lab note: Ki threshold 200 nM. Does this compound come in strictly under it? `Cc1cc(COCCN2CCOCC2)nn1C1CCCC1`
result: 0

The measured values listed here are drawn from ChEMBL document CHEMBL4699658.
